- Tested on: HT29 colon
- test name: NCI-60 one-dose screen, 48 h
- condition context: 10 µM unless noted
Compounds without any hit were thinned out: in the full panel of roughly 83,000, 20% have a hit. Calls of active or inactive are those of the source. The calls were made as follows: active = growth percent below 10; inactive = the rest.
Result category, one only: TRUE = active, FALSE = inactive

- compound: "COc1ccc(-n2c(COc3ccc(F)cc3)n[nH]c2=S)cc1"
  group label: "FALSE"
- compound: "CC(C)OC1OC(OC(C)C)C(OC(C)C)OC1OC(C)C (stereo unspecified)"
  group label: "FALSE"
- compound: "O=C(Nc1ccncc1)C(=O)c1cn(S(=O)(=O)c2cccc(Cl)c2F)c2ccccc12"
  group label: "FALSE"

Request: Lab log entry: COc1cc(CN2CCC(N3CCCC3=O)c3ccccc32)cc(OC)c1OC (stereo unspecified) — outcome as called in the assay?
Result: FALSE

Request: Lab log entry: `COc1ccc(/C=C/c2nc(NCCCN(C)C)c3ccccc3n2)cc1` — outcome as called in the assay?
Result: FALSE

Request: Lab log entry: `CCCC(CCC)(C(N)=O)C(=O)O` — outcome as called in the assay?
Result: FALSE

Request: Lab log entry: `OC(COCc1ccccc1)COCc1ccccc1` — outcome as called in the assay?
Result: FALSE

Request: Lab log entry: `O=[N+]([O-])c1ccc(SSc2ccc([N+](=O)[O-])cc2Cl)c(Cl)c1` — outcome as called in the assay?
Result: FALSE
